Measurement Description: chemical genetic growth profiling, strain panel (AID 1159580);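 further: tested at 20 µM; growth read once vehicle control cultures reached saturation at 30 °C; 1 = growth at the plate median or of vehicle wells; lower values mean less growth of the strain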
Experimental Setup: S. cerevisiae deletion strains, growth OD, locus YPR025C, strain CCL1, stronger effect = lower value
Out of some 5,500 compounds screened, about 2,000 (36%) were called active. Roughly 18% stayed inconclusive and do not appear here. The list shows a part of the results.
Readout Label: normalized growth
Write no unit; give the number alone.

Fill in normalized growth for record O=C(CO/N=C\c1ccc(Cl)cc1Cl)NNC(=S)Nc1cc(Cl)ccc1Cl
0.997

Fill in normalized growth for record O=S(=O)(Nc1cc(C(F)(F)F)ccc1F)c1cc(C(F)(F)F)ccc1Cl
0.937

Fill in normalized growth for record CCCC1c2ccsc2CCN1C(=S)Nc1ccc(Cl)cc1Cl (stereo unspecified)
0.983

Fill in normalized growth for record N#CC1=C(N)C(C#N)(C#N)C2(CCCCC2)C2CCCC=C12 (stereo unspecified)
0.98

Fill in normalized growth for record Nc1cc(-c2ccc(OC(F)(F)F)cc2)nn1-c1ccc(Cl)c(Cl)c1
0.975

Fill in normalized growth for record CC(C)(O)C#Cc1ccc(/C=N\Nc2c(Cl)cc(Cl)cc2Cl)cc1
0.972

* * *

# normalized growth annotations
Measurement Description: chemical genetic growth profiling, strain panel (AID 1159580);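 further: tested at 20 µM; growth read once vehicle control cultures reached saturation at 30 °C; 1 = growth at the plate median or of vehicle wells; lower values mean less growth of the strain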
Experimental Setup: S. cerevisiae deletion strains, growth OD, locus YIL125W, strain kgd1, stronger effect = lower value
Hit rate of the full screen: of about 5,500 compounds, about 2,000 (36%) were called active. Roughly 18% stayed inconclusive and do not appear here. The list shows a part of the results.
Write no unit; give the number alone.

Sample answers from the record:
CC(=O)N[C@@H]1[C@@H](C(O)[C@H](O)CO)O[C@](O)(C(=O)O)C[C@@H]1O (stereo partly specified)	0.993
CCn1cc(C(=O)O)c(=O)c2cnc(N3CCNCC3)nc21	0.993
C[C@@H]1CC2C3CCC4=CC(=O)C=C[C@]4(C)[C@@]3(F)[C@@H](O)C[C@]2(C)[C@@]1(O)C(=O)COP(=O)(O)O (stereo partly specified)	0.994
CO[C@@H]1[C@@H](O[C@@H]2O[C@H](C)[C@@H](O[C@H]3C[C@@](C)(O)[C@H](O)[C@H](C)O3)[C@H](N(C)C)[C@H]2O)[C@@H](CC=O)C[C@@H](C)[C@@H](O[C@H]2CC[C@H](N(C)C)[C@@H](C)O2)/C=C/C=C/C[C@H](C)OC(=O)C[C@H]1O	0.997
CC1=C(/C=C/C(C)=C/C=C/C(C)=C/CO)C(C)(C)CCC1	0.995
CC[C@@H]1[C@@H](O)N2C3C[C@H]1C1C(O)[C@]4(C[C@@H]12)c1ccccc1N(C)[C@@H]34 (stereo partly specified)	0.981
O=C(O)c1cc(=O)c2c(OCC(O)COc3cccc4oc(C(=O)O)cc(=O)c34)cccc2o1	1.02
CC(=O)OC/C=C(C)/C=C/C=C(C)/C=C/C1=C(C)CCCC1(C)C	0.992
COc1ccccc1-c1cc(=O)c2c(OC)cccc2o1	1.01
CC12CCC(CC1)C(C)(C)O2	1.02

Fill in normalized growth for record CC1=C(/C=C/C(C)=C/C=C/C(C)=C/C=C/C=C(C)/C=C/C=C(C)/C=C/C2=C(C)CCCC2(C)C)C(C)(C)CCC1
0.998

* * *

# normalized growth annotations
Measurement Description: chemical genetic growth profiling, strain panel (AID 1159580);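 further: tested at 20 µM; growth read once vehicle control cultures reached saturation at 30 °C; 1 = growth at the plate median or of vehicle wells; lower values mean less growth of the strain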
Experimental Setup: S. cerevisiae deletion strains, growth OD, locus YML070W, strain DAK1, stronger effect = lower value
Among all 5,500 compounds or so, about 2,000 (36%) were called active. Not shown: some 18% with an inconclusive outcome. Some of the results follow.
Write no unit; give the number alone.

Sample answers from the record:
Clc1ccc(-c2noc(CSC3=NCCN3)n2)cc1	0.912
O=C(Nc1ccccn1)c1cc(-c2ccccc2)c(C(F)(F)F)s1	0.924
CC1(C)C/C(=N/Nc2ccc(C(F)(F)F)cc2)c2cc(C(C)(C)C)c(O)c(O)c2O1	0.426
CCc1cc2c(cc1-c1csc(C/C(N)=N\O)n1)C(C)(C)CCC2(C)C	0.618
COc1ccccc1NC(=O)Nc1nn(C)c2cccc(OC)c12	0.824
COc1cc(C(=O)Oc2c(Cl)cc(Cl)cc2C=Nc2cccc(C(F)(F)F)c2)cc(OC)c1OC	0.583

Fill in normalized growth for record CCC1CCC(C)N(C(=S)Nc2ccc(Br)cc2C)C1 (configuration not stated)
0.958

Fill in normalized growth for record O=C(NCc1ccco1)c1csc(C2COc3ccccc3O2)n1 (configuration not stated)
0.689

Fill in normalized growth for record CC(C)(O)C#Cc1ccc(/C=N\Nc2c(Cl)cc(Cl)cc2Cl)cc1
0.707

Fill in normalized growth for record CSc1cccc(N2C(=O)CC(c3c(Cl)cccc3Cl)CC2=O)c1
0.995

Fill in normalized growth for record CCOC(=O)CCc1cc(N=Cc2cc(Br)ccc2O)c(O)c(N=Cc2cc(Br)ccc2O)c1
0.727

Fill in normalized growth for record O=C(Nc1cccc(C(F)(F)F)c1)Oc1ccc(F)cc1Cl
0.979

The reported numbers originate from PubChem BioAssay AID1159580.
